- Tested system: Beta-secretase 1 (Homo sapiens)
- Sequence (P56817 whole entry): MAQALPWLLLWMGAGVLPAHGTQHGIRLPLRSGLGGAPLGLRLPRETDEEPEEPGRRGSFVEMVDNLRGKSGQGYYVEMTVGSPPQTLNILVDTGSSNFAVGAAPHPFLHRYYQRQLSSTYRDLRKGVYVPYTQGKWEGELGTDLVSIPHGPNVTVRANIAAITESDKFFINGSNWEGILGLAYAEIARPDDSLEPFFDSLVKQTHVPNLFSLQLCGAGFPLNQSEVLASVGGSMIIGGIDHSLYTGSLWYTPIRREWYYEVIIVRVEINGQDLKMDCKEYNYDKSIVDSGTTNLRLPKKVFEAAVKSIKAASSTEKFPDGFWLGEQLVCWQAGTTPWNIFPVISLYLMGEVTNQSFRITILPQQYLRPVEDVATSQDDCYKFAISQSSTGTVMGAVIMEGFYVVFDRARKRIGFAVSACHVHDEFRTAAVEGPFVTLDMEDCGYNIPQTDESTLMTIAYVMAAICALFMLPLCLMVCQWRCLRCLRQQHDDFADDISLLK
- Experimental details: Inhibition of human recombinant BACE1 preincubated after 1 hr by fluorescence assay
Property label: IC50 (µM)
Record the value in µM, omitting the unit from your answer.

Below, 4 compounds whose answers are already recorded.
Oc1cc(-c2ccccc2)c(O)cc1-c1ccccc1 | 16
O=C1C=C(c2ccccc2)C(=O)c2ccccc21 | 9.33
COc1ccc(C2=CC(=O)C(c3ccc(OC)cc3)=CC2=O)cc1 | 23.3
O=C1C=C(c2ccc(C(F)(F)F)cc2)C(=O)C=C1c1ccccc1 | 6.52

// compound O=C1C=C(c2ccc(O)cc2)C(=O)c2ccccc21 , assay Beta-secretase 1 (Homo sapiens), IC50 value: 8.22

Value (IC50, Beta-secretase 1 (Homo sapiens)) for record O=C1C=C(c2ccccc2)C(=O)C(c2ccccc2)=C1 = 11.4

Record for COc1ccc(-c2cc(O)cc(-c3ccccc3)c2O)cc1 under target or system Beta-secretase 1 (Homo sapiens): IC50 reported as 9.1

Response field IC50 (Beta-secretase 1 (Homo sapiens)) for item COc1ccc(-c2cc(OC(C)=O)cc(-c3ccccc3)c2OC(C)=O)cc1 : 11.1

Sample COc1cccc2c1C(=O)C(c1ccc(O)cc1)=CC2=O , system: Beta-secretase 1 (Homo sapiens). Its IC50 is 10.3

Test item CC(=O)Oc1cc(-c2ccccc2)c(OC(C)=O)c(-c2ccccc2)c1 ; Beta-secretase 1 (Homo sapiens); reported IC50 was 20

GET /values?item= COc1ccc(-c2cc(OC(C)=O)c(-c3ccc(OC)cc3)cc2OC(C)=O)cc1 &system= Beta-secretase 1 (Homo sapiens) returns IC50: 23.9
